test: Pharmacokinetics of dihydroartemisinin (DHA), active metabolite, in plasma after multiple intravenous AS doses, non-compartmental analysis; type: in vivo, human; details: human, plasma, intravenous, 4 mg/kg, Mean AUCinf of DHA over three days, range, 4 mg/kg cohort
Reported Endpoint: AUC(0-inf)

Query: Name the reported AUC(0-inf) value associated with the compound C[C@H]1[C@@H](O)O[C@@H]2O[C@@]3(C)CC[C@H]4[C@H](C)CC[C@@H]1[C@@]24OO3 [DHA, dihydroartemisinin]
Result: 3740 to 4390 ng·h/mL

* * *

experiment: Pharmacokinetics of dihydroartemisinin (DHA), active metabolite, in plasma after multiple intravenous AS doses, non-compartmental analysis; assay type: in vivo, human; conditions: human, plasma, intravenous; all days and dose cohorts
Reported Endpoint: Tmax

Query: Name the reported Tmax value associated with the compound C[C@H]1[C@@H](O)O[C@@H]2O[C@@]3(C)CC[C@H]4[C@H](C)CC[C@@H]1[C@@]24OO3 [DHA, dihydroartemisinin]
Result: 9.6 to 17.4 min

* * *

experiment: Pharmacokinetics of artesunate (AS) in plasma after multiple intravenous doses, compartmental analysis (Phase 1b); assay type: in vivo, human; conditions: human, plasma; Day 2; AS 4 mg/kg iv daily for 3 days, 2 min infusion; n = 6; CA; read-out: Tmax (converted)
Reported Endpoint: Tmax (min)
Give the value, in units of min, as a plain number.

Query: Name the reported Tmax value associated with the molecule C[C@H]1[C@H](OC(=O)CCC(=O)O)O[C@@H]2O[C@@]3(C)CC[C@H]4[C@H](C)CC[C@@H]1[C@@]24OO3 [AS]
Result: 2

* * *

assay: Pharmacokinetics of artesunate (AS) in plasma after multiple intravenous doses, compartmental analysis (Phase 1b); format: in vivo, human; conditions: human, plasma, iv, 8 mg/kg, Day 3; AS 8 mg/kg iv daily for 3 days, 2 min infusion; mean (CV%), n = 6; CA
Reported Endpoint: Cmax (µg/mL)
Give the value, in units of µg/mL, as a plain number.

Query: Name the reported Cmax value associated with the compound C[C@H]1[C@H](OC(=O)CCC(=O)O)O[C@@H]2O[C@@]3(C)CC[C@H]4[C@H](C)CC[C@@H]1[C@@]24OO3
Result: 67.6

* * *

test: Pharmacokinetics of dihydroartemisinin (DHA), active metabolite, in plasma after multiple intravenous AS doses, non-compartmental analysis; assay type: in vivo, human; conditions: human, plasma, iv, 2 mg/kg; read-out: Tmax
Reported Endpoint: Tmax (min)
Give the value, in units of min, as a plain number.

Query: Name the reported Tmax value associated with the molecule C[C@H]1[C@@H](O)O[C@@H]2O[C@@]3(C)CC[C@H]4[C@H](C)CC[C@@H]1[C@@]24OO3 [DHA, dihydroartemisinin]
Result: 17.4

* * *

assay: Pharmacokinetics of dihydroartemisinin (DHA), active metabolite, in plasma after multiple intravenous AS doses, non-compartmental analysis; format: in vivo, human; settings: human, plasma, iv, 8 mg/kg, Day 3; DHA after AS 8 mg/kg iv daily for 3 days, 2 min infusion; mean (CV%), n = 6; NCA; read-out: AUCinf
Reported Endpoint: AUC(0-inf) (ng·h/mL)
Give the value, in units of ng·h/mL, as a plain number.

Query: Name the reported AUC(0-inf) value associated with the molecule C[C@H]1[C@@H](O)O[C@@H]2O[C@@]3(C)CC[C@H]4[C@H](C)CC[C@@H]1[C@@]24OO3 [DHA, dihydroartemisinin]
Result: 9200
